system: uterine fibroid leiomyoma cells; assay: DNA content assay of growing leiomyoma cells treated with FGI agents (Example 1, 4 days); format: cell-based, human; conditions: Homo sapiens, 96 h, read-out: IC50 (= 80 ng) Concentration
endpoint label: IC50
Please append the unit to your numeric answer.

Notebook: CN(CCOc1ccc(CC2SC(=O)NC2=O)cc1)c1ccccn1 (stereo not shown) , IC50 read as 40 µM
